- Assay text: qHTS assay to identify aromatase inhibitors - cell viability counter screen (AID 743084);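 note: cells stimulated with testosterone during compound exposure; % is set by controls: 0 for no effect and ±100 for the full control effect; nearly all actives have a fitted effect of over 55% in size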
- Protocol conditions: MCF-7 aro ERE viability, CellTiter-Fluor, 24 h; series mostly up to 70.3 µM
Results filed as inconclusive are left out. Calls of active or inactive are those of the source. Calls come from the whole dose curve; as a rule, active = well fitted cell-killing curve with a large enough effect in the repeat runs; inconclusive = weak or mixed curves, or effect the other way; inactive = no such curve, though single readings can be large or run the other way.
Measured parameter: outcome

Worked cases, answers included:
>  <Compound>
CC1=C(C=O)C(C)(C)CC=C1

>  <outcome>
inactive

$$$$
>  <Compound>
OCCN1CCNCC1

>  <outcome>
inactive

$$$$
>  <Compound>
O=S(=O)(O)c1ccc2nc(-c3ccccc3)[nH]c2c1

>  <outcome>
inactive

$$$$
>  <Compound>
O=C(OCc1ccccc1)c1ccc(O)cc1

>  <outcome>
inactive

$$$$

Can you look up the measured outcome of `COc1cc(C(=S)N2CCOCC2)ccc1O` for me? inactive

Can you look up the measured outcome of `C=C(C)C(=O)O` for me? inactive

Can you look up the measured outcome of `NCCO` for me? inactive

Can you look up the measured outcome of `O=C(O)CP(=O)(O)O` for me? inactive

Can you look up the measured outcome of CCCCC/C=C/CC1CC(=O)OC1=O (centres undefined) for me? inactive

====

- Assay text: qHTS assay to identify small molecule that activate the aryl hydrocarbon receptor (AhR) signaling pathway - cell viability counter screen (AID 743086);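 note: HepG2 liver cells carrying the AhR DRE luciferase reporter; % is set by controls: 0 for no effect and ±100 for the full control effect; nearly all actives have a fitted effect of over 45% in size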
- Protocol conditions: HepG2-AhR-luc viability, CellTiter-Fluor, 24 h; series mostly up to 70.3 µM
- Description: U.S. Tox21 Program National Center for Advancing Translational Sciences [NCATS] NIH Chemical Genomics Center [NCGC] U.S. Environmental Protection Agency [EPA] National Institutes of Environmental Health Sciences [NIEHS] National Toxicology Program [NTP] U.S. Food and Drug Administration [FDA] Tox21 Assay overview: The Aryl hydrocarbon Receptor (AhR), a member of the family of basic helix-loop-helix transcription factors, is crucial to adaptive responses to environmental changes. […]
Inconclusive results are not listed. Activity calls are given as the source filed them. Calls come from the whole dose curve; as a rule, active = well fitted cell-killing curve with a large enough effect in the repeat runs; inconclusive = weak or mixed curves, or effect the other way; inactive = flat fitted curve, though single readings scatter.
Pick one: active, inactive

Use the examples below as a reference point.
>  <Compound>
Cc1ccnc2c1NC(=O)c1cccnc1N2C1CC1

>  <Class>
inactive

$$$$
>  <Compound>
CCCCCCCCCCCC[N+](C)(C)C

>  <Class>
inactive

$$$$
>  <Compound>
COC(=O)/C=C/c1ccccc1

>  <Class>
inactive

$$$$
>  <Compound>
COC(=O)[C@H]1[C@H]2C[C@@H]3c4[nH]c5cc(OC)ccc5c4CCN3C[C@H]2C[C@@H](OC(=O)c2cc(OC)c(OC)c(OC)c2)[C@@H]1OC

>  <Class>
inactive

$$$$
>  <Compound>
Oc1ccc(Cl)cc1Cc1cc(Cl)ccc1O

>  <Class>
inactive

$$$$
>  <Compound>
Oc1c(Cl)cc(Cl)cc1Sc1cc(Cl)cc(Cl)c1O

>  <Class>
inactive

$$$$

Test call, this compound: `CC(C)CCCCCCc1ccc(O)cc1` inactive

Test call, this compound: `CC[C@@H](N)CO` inactive

====

- Assay text: qHTS RealTime-Glo MT Cell Viability Assay in HEK293 cells - 16 hour (AID 1224872); note: nearly all actives have a fitted effect of over 50% in size
- Protocol conditions: RealTime-Glo luminescence; series mostly up to 76.8 µM
Inconclusive results are not listed. Activity calls are given as the source filed them. Calls follow the shape of the dose curve; as a rule, active = well fitted cell-killing curve with a large enough effect in the repeat runs; inconclusive = weak or mixed curves, or effect the other way; inactive = flat fitted curve, though single readings scatter.
Pick one: active, inactive

>  <Compound>
c1ccc2cc3c(ccc4ccccc43)cc2c1

>  <Class>
inactive

$$$$

Test call, this compound: `OCCN1CCNCC1` active

Test call, this compound: `CC(=O)CC(C)=O` inactive

Test call, this compound: CC(C)(C)NCC(O)COc1ccccc1OCC1CCCO1 (stereo not drawn) inactive

Test call, this compound: `Nc1cc(Cl)c(-c2cc(Cl)c(N)cc2Cl)cc1Cl` active

Test call, this compound: `CC(C)(C)c1ccc(O)c(C(C)(C)C)c1` active

Test call, this compound: `Nc1nc2ccccc2[nH]1` inactive

Test call, this compound: `COc1ccc(COC(C)=O)cc1` inactive

====

- Assay text: qHTS assay to identify small molecule antagonists of the thyroid receptor (TR) signaling pathway (AID 743065); note: nearly all actives have a fitted effect of over 55% in size; note: potency is the fitted concentration of half-maximal effect
- Protocol conditions: GH3.TRE-Luc, T3-stimulated luciferase inhibition, 23.5 h; series mostly up to 70.3 µM
Records with an inconclusive call do not appear. Active and inactive are the calls of the source. The call rests on the fitted dose curve; in most records, active means well fitted inhibition curve with a large enough effect in the repeat runs; inconclusive means weak or mixed curves; inactive means no such curve, though single readings can be large or run the other way.
Measured parameter: Potency

>  <Compound>
c1ccc2n[nH]nc2c1

>  <Measured parameter>
Potency

>  <Result value>
inactive

$$$$
>  <Compound>
CCOc1ccc2c(c1)C(C)=CC(C)(C)N2

>  <Measured parameter>
Potency

>  <Result value>
33.5 µM (active)

$$$$
>  <Compound>
CC(C)(O)CCC(C)(C)O

>  <Measured parameter>
Potency

>  <Result value>
inactive

$$$$
>  <Compound>
O=C(Oc1ccccc1)c1ccccc1O

>  <Measured parameter>
Potency

>  <Result value>
inactive

$$$$
>  <Compound>
O=C(O)c1cc(Cl)cc(Cl)c1

>  <Measured parameter>
Potency

>  <Result value>
inactive

$$$$

Can you look up the measured Potency of CCn1cc(C(=O)O)c(=O)c2cc(F)c(N3CCNC(C)C3)c(F)c21 (centres undefined) for me? inactive

Can you look up the measured Potency of `CCOc1ccccc1C(N)=O` for me? inactive

Can you look up the measured Potency of `CO[Si](OC)(OC)c1ccccc1` for me? inactive

Can you look up the measured Potency of `O=C(Cl)c1cccc(C(=O)Cl)c1` for me? inactive

Can you look up the measured Potency of `Cc1scc2c1N(C(=O)CN1CCN(C)CC1)c1ccccc1NC2=O` for me? inactive

Can you look up the measured Potency of `Oc1c(Cl)cc(Cl)cc1Sc1cc(Cl)cc(Cl)c1O` for me? 8.63 µM (active) [middle of 4 runs]

====

- Assay text: qHTS RealTime-Glo MT Cell Viability Assay in HEK293 cells - 8 hour (AID 1224887); note: top concentration of the series differs between compounds; % is set by controls: 0 for no effect and ±100 for the full control effect; nearly all actives have a fitted effect of over 50% in size
- Protocol conditions: RealTime-Glo luminescence; series mostly up to 76.8 µM
Inconclusive results are not listed. Activity calls are given as the source filed them. Calls come from the whole dose curve; as a rule, active = well fitted cell-killing curve with a large enough effect in the repeat runs; inconclusive = weak or mixed curves, or effect the other way; inactive = flat fitted curve, though single readings scatter.
Measured parameter: activity change, negative = cytotoxicity

Worked cases, answers included:
>  <Compound>
O

>  <Result value>
inactive

$$$$
>  <Compound>
Nc1nc2ccccc2[nH]1

>  <Result value>
inactive

$$$$
>  <Compound>
CC(=O)O[C@]1(C(C)=O)CC[C@H]2[C@@H]3C[C@H](C)C4=CC(=O)CC[C@]4(C)[C@H]3CC[C@@]21C

>  <Result value>
inactive

$$$$
>  <Compound>
O=C(O)c1cccc(C(=O)O)c1

>  <Result value>
inactive

$$$$
>  <Compound>
CC(=O)CC(=O)Nc1ccc2[nH]c(=O)[nH]c2c1

>  <Result value>
inactive

$$$$
>  <Compound>
CCn1cc(C(=O)O)c(=O)c2cc(F)c(N3CCNC(C)C3)c(F)c21 (stereo not drawn)

>  <Result value>
inactive

$$$$
>  <Compound>
CCCCCCCCCCCCCCCCCl

>  <Result value>
1.34% [at 15.8 µM] (inactive)

$$$$

Switching to the query record.
Can you look up the measured activity change, negative = cytotoxicity of NC(Cc1ccc(Cl)cc1)C(=O)O (stereo not drawn) for me? 10.3% [at 0.29 µM] (inactive)

====

- Assay text: qHTS assay to identify small molecule agonists of the peroxisome proliferator-activated receptor delta (PPARd) signaling pathway - cell viability counter screen (AID 743211); note: nearly all actives have a fitted effect of over 55% in size
- Protocol conditions: PPARd-bla HEK293H viability, CellTiter-Glo luminescence, 17 h; series mostly up to 62.6 µM
Results filed as inconclusive are left out. The source made the active and inactive calls. Calls follow the shape of the dose curve; as a rule, active = well fitted cell-killing curve with a large enough effect in the repeat runs; inconclusive = weak or mixed curves; inactive = no such curve, though single readings can be large or run the other way.
Pick one: active, inactive

>  <Molecule>
CCn1cc(C(=O)O)c(=O)c2cc(F)c(N3CCNC(C)C3)c(F)c21 (centres undefined)

>  <Class>
inactive

$$$$

Test call, this molecule: `Cc1ccnc2c1NC(=O)c1cccnc1N2C1CC1` inactive

Test call, this molecule: `CCOc1ccc2c(c1)C(C)=CC(C)(C)N2` inactive

Test call, this molecule: `NCCO` inactive

Test call, this molecule: `CCC[C@H](N[C@@H](C)C(=O)N1[C@H](C(=O)O)C[C@@H]2CCCC[C@@H]21)C(=O)OCC` inactive

Test call, this molecule: `CO[Si](OC)(OC)c1ccccc1` inactive

Test call, this molecule: `CCCOC(=O)c1cc(O)c(O)c(O)c1` inactive

Test call, this molecule: `Cc1ccc(S(=O)(=O)Oc2ccc(N=Nc3ccc(-c4ccc(N=Nc5c(O)ccc6cc(S(=O)(=O)O)cc(S(=O)(=O)O)c56)c(C)c4)cc3C)cc2)cc1` inactive

Test call, this molecule: `C=C(C)C(=O)O` inactive

Test call, this molecule: `CC(C)(C)NC(=O)[C@@H]1CN(Cc2cccnc2)CCN1C[C@@H](O)C[C@@H](Cc1ccccc1)C(=O)N[C@H]1c2ccccc2C[C@H]1O` inactive

Test call, this molecule: `CCCC(=O)c1ccccc1` inactive

Test call, this molecule: `CCCCCCCCCCCCCCCCCl` inactive

Test call, this molecule: `CC(C)(c1ccccc1)c1ccc(Nc2ccc(C(C)(C)c3ccccc3)cc2)cc1` inactive

Test call, this molecule: `COC(=O)[C@H]1[C@H]2C[C@@H]3c4[nH]c5cc(OC)ccc5c4CCN3C[C@H]2C[C@@H](OC(=O)c2cc(OC)c(OC)c(OC)c2)[C@@H]1OC` active

Test call, this molecule: `CCN(CC)c1ccc2c(C)cc(=O)oc2c1` inactive

Test call, this molecule: `NCCCCCC(=O)O` inactive

Test call, this molecule: `CCc1cc(C(C)(C)C)c(O)c(C(C)(C)C)c1` inactive

Test call, this molecule: `CC(=O)OCC1=C(C(=O)O)N2C(=O)[C@@H](NC(=O)Cc3cccs3)[C@H]2SC1` inactive

Test call, this molecule: `COC(=O)/C=C/c1ccccc1` inactive

Test call, this molecule: `[Cl][In]([Cl])[Cl]` inactive

Test call, this molecule: `c1cnc2cc3c(cc2n1)C1CNCC3C1` inactive

Test call, this molecule: C#CC(C)(CC)OC(=O)c1ccccc1C(=O)O (centres undefined) inactive

Test call, this molecule: `COc1ccc(Cc2cnc(N)nc2N)cc1OC` inactive

Test call, this molecule: CC1COc2c(N3CCN(C)CC3)c(F)cc3c(=O)c(C(=O)O)cn1c23 (centres undefined) inactive
